Cited source: paper PMC7819943

Target: OsSMF1 (Oryza sativa, UniProt Q6ZLB0 1-436)
Sequence: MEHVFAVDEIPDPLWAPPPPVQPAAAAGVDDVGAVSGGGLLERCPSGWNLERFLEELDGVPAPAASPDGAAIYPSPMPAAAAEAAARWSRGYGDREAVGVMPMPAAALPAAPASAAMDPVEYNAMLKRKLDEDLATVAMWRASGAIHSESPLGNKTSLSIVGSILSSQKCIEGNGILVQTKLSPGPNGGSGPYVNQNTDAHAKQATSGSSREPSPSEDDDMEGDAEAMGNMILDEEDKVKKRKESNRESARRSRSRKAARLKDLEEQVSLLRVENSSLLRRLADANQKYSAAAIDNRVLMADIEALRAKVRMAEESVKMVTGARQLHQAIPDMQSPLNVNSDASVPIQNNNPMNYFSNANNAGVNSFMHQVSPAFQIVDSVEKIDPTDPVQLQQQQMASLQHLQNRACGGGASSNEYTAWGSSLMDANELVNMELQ
Assay: protein-binding microarray (RPBM); PBS, 2% BSA, 51.3 ng/ul salmon testes DNA, 50 uM zinc acetate, 200 nM TF, 25 C, 1 h; high values mean tight binding
Settings: protein: recombinant; tags: N-terminal polyhistidine and DsRed monomer fusion (pET32a); chain copies: 2; label: CyDye5-dUTP incorporated in the synthesized complementary strand; 3' TTTTT single-stranded linker to array surface; dsDNA, one strand shown
Whole data set: some 39,000 sequences, median “fluorescence intensity (a.u.)” near 4,300, cut for the highest 2% near 39,000. The full list was thinned out, with the highest values kept by preference.
experimentalEndpoint: binding signal

Record excerpt, results attached:
1. AATCAGATGATCGGTGCTGCAGCCATCATTGAAGCCTGTGCGGAGTCACCTAGTGCAG :: 3400 fluorescence intensity (a.u.)
2. ACAGGGGCAGGGGTCATGTGGTGGAGGTAATCAATTAATCCGGAGTCACCTAGTGCAG :: 3660 fluorescence intensity (a.u.)
3. GCGGCGCATCCAGGAGGTTGAGTCGAGCACGCCACCGCTGCGGAGTCACCTAGTGCAG :: 3420 fluorescence intensity (a.u.)

Would you mind listing binding signal for each of the following sequences?
1. TTAATGCATACTGACAGCTGTTTATGTGCTTCAAATTTACCGGAGTCACCTAGTGCAG
2. GCTGCCAGCGCCGCCGCCACCTGTGTCGGCACGCGAGCGCCGGAGTCACCTAGTGCAG
3. CGTACGGCACCGAGTTATCGCCGCCAGGTCAGTTGGTTTACGGAGTCACCTAGTGCAG
4. ACCTCCCACACCTGTGTCGATCCAGGCAGGCCGAGCGCGACGGAGTCACCTAGTGCAG
5. TGGGTCCCACGCAATAGTGGACCTGATGAATTGCAGGATTCGGAGTCACCTAGTGCAG

Response:
4700 fluorescence intensity (a.u.)
3350 fluorescence intensity (a.u.)
3690 fluorescence intensity (a.u.)
43400 fluorescence intensity (a.u.)
41100 fluorescence intensity (a.u.)
